# Test system: different kinases
# Protocol Summary: Kinase activity screening by Millipore UK Ltd, percent kinase activity at 300 nM of compound (Table 31)
# Format: biochemical
# Study Conditions: CK1g2
Task for the reader: assign each of the following compounds its reported Percent Kinase Activity of Enzyme CK1g2.
Numbers only, in %.

Examples from the recorded data:
>>> result("O=C1NC(=O)/C(=C/c2ccnc(N3CCC(CNCc4cccc(-c5ccsc5)n4)CC3)n2)N1 [Example 69]")
76
>>> result("Nc1cccc2c1CCN(c1nccc(/C=C3\\NC(=O)NC3=O)n1)C2 [Example 66]")
77
>>> result("NCC1CCN(c2nccc(/C=C3\\NC(=O)NC3=O)n2)CC1 [Example 65]")
96
>>> result("Nc1ccc2c(c1)CN(c1nccc(/C=C3\\NC(=O)NC3=O)n1)CC2 [Example 64]")
75

Give me Percent Kinase Activity of Enzyme CK1g2 for each of these compounds, listed below.
1. O=C1NC(=O)/C(=C/c2ccnc(N3CCC(CNCc4ccc5ccccc5n4)CC3)n2)N1 [Example 68]
2. CN(c1nccc(/C=C2\NC(=O)NC2=O)n1)[C@H]1CCCNC1 [Example 67]

(A)
84
111

* * *

# Tested on: different kinases
# Protocol Summary: Kinase activity screening by Millipore UK Ltd, percent kinase activity at 300 nM of compound (Table 31)
# Type: biochemical
# Study Conditions: CK2
The threshold is 90%. Values of Percent Kinase Activity of Enzyme CK2 beneath it are tagged class 1; values meeting or exceeding it are tagged class 0.

>>> category_label("O=C1NC(=O)/C(=C/c2ccnc(N3CCC(CNCc4ccc5ccccc5n4)CC3)n2)N1")
"class 0"
>>> category_label("O=C1NC(=O)/C(=C/c2ccnc(N3CCC(CNCc4cccc(-c5ccsc5)n4)CC3)n2)N1")
"class 0"
>>> category_label("Nc1cccc2c1CCN(c1nccc(/C=C3\\NC(=O)NC3=O)n1)C2")
"class 1"
>>> category_label("CN(c1nccc(/C=C2\\NC(=O)NC2=O)n1)[C@H]1CCCNC1")
"class 0"

(Q) Is Percent Kinase Activity of Enzyme CK2 of NCC1CCN(c2nccc(/C=C3\NC(=O)NC3=O)n2)CC1 strictly below 90%?
(A) class 0

(Q) Say whether its Percent Kinase Activity of Enzyme CK2 is strictly beneath 90%. Entry: Nc1ccc2c(c1)CN(c1nccc(/C=C3\NC(=O)NC3=O)n1)CC2
(A) class 1

* * *

# Test system: Caco-2 cells
# Protocol Summary: Inhibition of Caco-2 cells (MTS cell proliferation)
# Format: cell-based
# Study Conditions: Homo sapiens, Table 26, 72 hours, read-out: IC50
Property Label: IC50 (µM)
Numbers only, in µM.

(Q) Which IC50 is reported for this molecule? CNC(=O)c1cc(Oc2ccc(NC(=O)Nc3ccc(Cl)c(C(F)(F)F)c3)cc2)ccn1
(A) 9.37

* * *

# Test system: different kinases
# Protocol Summary: Kinase activity screening by Millipore UK Ltd, percent kinase activity at 300 nM of compound (Table 31)
# Assay type: biochemical
# Study Conditions: Pim-3
# Description: Protocols for Kinase Activity Screening: Kinase screening was performed by Millipore UK Ltd. Kinase dilution buffer composition: 20 mM MOPS, 1 mM EDTA, 0.01% Brij-35, 5% Glycerol, 0.1% b-mercaptoethanol, 1 mg/mL BSA.
Outcome: true for Percent Kinase Activity of Enzyme Pim-3 of at least 80%; false for anything lower.

Use the examples below as a reference point.
>>> category_label("Nc1ccc2c(c1)CN(c1nccc(/C=C3\\NC(=O)NC3=O)n1)CC2")
"true"
>>> category_label("O=C1NC(=O)/C(=C/c2ccnc(N3CCC(CNCc4ccc5ccccc5n4)CC3)n2)N1")
"false"
>>> category_label("CN(c1nccc(/C=C2\\NC(=O)NC2=O)n1)[C@H]1CCCNC1")
"true"
>>> category_label("Nc1cccc2c1CCN(c1nccc(/C=C3\\NC(=O)NC3=O)n1)C2")
"true"
>>> category_label("O=C1NC(=O)/C(=C/c2ccnc(N3CCC(CNCc4cccc(-c5ccsc5)n4)CC3)n2)N1")
"false"

Proceed to the following item.
(Q) I'd appreciate it if you could say whether NCC1CCN(c2nccc(/C=C3\NC(=O)NC3=O)n2)CC1 has Percent Kinase Activity of Enzyme Pim-3 at least equal to 80%.
(A) false
